// provenance: the supplement of paper PMC10567573

Listed next: entries and their corresponding protein stability index.
B1: ESRRA (parent)
chain: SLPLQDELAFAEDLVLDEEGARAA

Variants of: B1
test-summary: protein stability index of a GFP-peptide fusion (GPS, HEK-293T) (PSI 1-6); higher = more stable;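 also: lentivirally expressed fusions sorted by FACS into six bins by GFP to DsRed ratio, PSI derived from sequencing read proportions per bin multiplied by bin number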
experimental-setup: c terminus: a fixed tail appended

A23E
3.66
E18S
2.85
L2G
4.81
R22C
3.2

For the variant L4K , what protein stability index is on record?
5.08

What about L14H ?
5.42

What about L4H ?
5.41

What about R22A ?
3.35

What about E18H ?
2.56

What about Q5E ?
5.48

What about F10T ?
3.77

What about A11H ?
5.54

What about E18W ?
2.49
